Below, each entry is listed alongside its reported growth.
System: SNB-19 CNS
Experiment: NCI-60 one-dose screen, 48 h (100 = growth as untreated, 0 = no growth, -100 = all killed)
Details: 10 µM unless noted
This is part of a sample that, as a whole, favours compounds with a hit. Of some 83,000 tested, about 20% had one in any assay. Active and inactive are the calls of the source. How the source made its calls: active means growth percent below 10; inactive means the rest.

Observe how each entry below is paired with its result.
molecule: Nc1ccc(-c2nc3ccc4[nH]ncc4c3c3c2CCCC3)cc1F
target_entity: SNB-19 CNS
growth: 41.9% (inactive)
//
molecule: COc1ccc(/C=C(\C#N)c2cc3ccccc3[nH]2)cc1
target_entity: SNB-19 CNS
growth: 39.7% (inactive)
//
molecule: Nc1n[nH]c2cccc(C#Cc3cccc(C(=O)Nc4ccc(CN5CCOCC5)c(C(F)(F)F)c4)c3)c12
target_entity: SNB-19 CNS
growth: 75.2% (inactive)
//
molecule: O=C(Nc1ccc2ncsc2c1)c1csc(Nc2ccc3[nH]ncc3c2)n1
target_entity: SNB-19 CNS
growth: 41.2% (inactive)
//
molecule: COC(=O)/C=C1/SC(N2N=C(c3cccs3)CC2c2ccc(F)cc2)=NC1=O (configuration not stated)
target_entity: SNB-19 CNS
growth: 76.4% (inactive)
//
molecule: COc1cc2c(cc1OCCCOC1=C=C=C(c3ccc4c(c3)c3cc(-c5ccc(OCCCOc6cc7c(cc6OC)C(=O)N6CCC[C@H]6C=N7)cc5)ccc3n4S(=O)(=O)c3ccc(C)cc3)C=C1)N=C[C@@H]1CCCN1C2=O
target_entity: SNB-19 CNS
growth: 61.6% (inactive)
//
molecule: CCCNNC(=O)/C=C/c1ccc(CNCCc2c(C)[nH]c3ccccc23)cc1
target_entity: SNB-19 CNS
growth: 28.6% [2.5 µM] (inactive)
//
molecule: O=C1N=c2ccccc2=C1c1sc(=S)n(C2CC(=O)N(c3ccc(Cl)cc3)C2=O)c1O (configuration not stated)
target_entity: SNB-19 CNS
growth: 102% (inactive)
//
molecule: CC1=C2[C@@H](CC1)[C@]1(C)O[C@@](C(C)C)(C[C@H]1OC(=O)CO)[C@H]2OC(=O)C1CC1c1ccccc1 (some centres not stated)
target_entity: SNB-19 CNS
growth: 88.5% (inactive)
//
molecule: Cc1c(CC(=O)OCCO)cc(-c2ccc(Cl)cc2)n1-c1ccccc1
target_entity: SNB-19 CNS
growth: 95.3% (inactive)

Quick check: growth of C=CCNC(=O)Cc1c(-c2ccc(OC)cc2)oc2c(OC)c3c(c(OC)c12)OCO3 ? 95.3% (inactive)

Okay, and C=C1C(=O)O[C@@H]2[C@H]3[C@H](COC(C)=O)[C@@H](OC(C)=O)C[C@H]3C(=C)[C@@H](O)C[C@@H]12 ? 93.7% (inactive)

Okay, and CCN1C(=O)/C(=c2\sc3n(c2=O)C2C(NN=3)N(CC)C(=O)N2CC)c2ccccc21 (configuration not stated) ? 42% (inactive)

Okay, and O=c1cc(N/N=C/c2ccc(F)cc2)c2cc(Cl)ccc2[nH]1 ? 91.1% (inactive)

Okay, and CCCCCCCCn1ccc2cc(NC(=O)CN3CCN(c4nc(C)cc(N5CCCCC5)n4)CC3)ccc21 ? 94.3% (inactive)

Okay, and [2H]C([2H])([2H])Oc1cc(F)ccc1/C=C/C(=O)/C=C(/C=C/c1ccc(F)cc1OC([2H])([2H])[2H])OB(F)F ? 56.9% (inactive)

Okay, and Cc1ccc(S(=O)(=O)OC[C@@]2(C)CC[C@]3(C)CC[C@]4(C)C(=C3C2)C=C[C@@H]2[C@@]3(C)CCCNC(C)(C)[C@@H]3CC[C@]24C)cc1 ? 47.8% (inactive)

---

System: RPMI-8226 leukemia
Test: NCI-60 one-dose screen, 48 h
Details: 10 µM unless noted
About 83,000 compounds went through this panel and 20% of them were active in at least one assay; those are over-represented in the sample as a whole. Active and inactive are the calls of the source. Rule for the calls: active = growth percent below 10; inactive = the rest.
Use one of these outcomes when replying: label 1 for active, label 0 for inactive

Completed entries (count: 3):
compound: O=C(NCc1ccc(Cn2c(=O)sn(-c3ccc(Cl)cc3)c2=O)cc1)OCc1ccc2c(Cl)cc(Cl)c(O)c2n1
assigned_class: label 0
//
compound: COc1cc(F)c(/C=C/c2cc(/C=C/c3cc(OC)c(OC)cc3F)n(-c3cc(F)cc(F)c3)n2)cc1OC
assigned_class: label 0
//
compound: CN(C)CCCn1c2nc(=O)[nH]c(=O)c-2nc2cc(Cl)c(Cl)cc21
assigned_class: label 0

Dear all, I need the recorded test outcome for O=C(/C=C/c1ccc(F)cc1)Nc1ncc(Cc2ccc(F)cc2)s1 , thank you. label 0

Okay, and CC1=CC(C)(C)NC(=S)N1c1ccc(Cl)cc1 ? label 0

Okay, and CCOC(=O)c1cnn(-c2ccc(S(N)(=O)=O)cc2)c1N ? label 0

Okay, and O=C1OCC2=C1C(c1cccc([N+](=O)[O-])c1)c1cc3c(cc1N2CCO)CCC3 (stereo not given) ? label 0

Okay, and Cn1c(=O)c2c(nc(Nc3cc(=O)[nH]c(=O)[nH]3)n2Cc2ccccc2)n(C)c1=O ? label 0

Okay, and COCCOc1cc2ncnc(N3CCN(S(=O)(=O)c4ccccc4Cl)CC3)c2cc1OCCOC ? label 0

Okay, and CCN1C(=O)N(c2ccccc2)C2NC(=S)N(/N=C/C=C/c3ccccc3)C21 (stereo not given) ? label 1

Okay, and CC[C@@H]1NC(=O)[C@H]([C@H](O)[C@H](C)C/C=C/c2ccc(CN3C(=O)C(C)=C(C)C3=O)cc2)N(C)C(=O)[C@H](C(C)C)N(C)C(=O)[C@H](CC(C)C)N(C)C(=O)[C@H](CC(C)C)N(C)C(=O)[C@@H](C)NC(=O)[C@H](C)NC(=O)[C@H](CC(C)C)N(C)C(=O)[C@H](C(C)C)NC(=O)[C@H](CC(C)C)N(C)C(=O)CN(C)C1=O ? label 0

---

Below, each entry is listed alongside its reported growth.
Test system: SF-268 CNS
Assay: NCI-60 one-dose screen, 48 h (100 = growth as untreated, 0 = no growth, -100 = all killed)
Conditions: 10 µM unless noted
Compounds without any hit were thinned out: in the full panel of roughly 83,000, 20% have a hit.
Note: unit % is implicit; provide only the numeric part.

Observe how each entry below is paired with its result.
compound: COc1cc(-c2[nH]ncc2Nc2ccc(Cl)cc2)cc(OC)c1OC
result_unit: %
growth: 84.5
--
compound: N#C/C(=C\c1ccccc1Cl)c1cc2ccccc2[nH]1
result_unit: %
growth: 96.3
--
compound: CN1CCN(c2ccc(Nc3ncc(C(N)=O)c(NCCCNC(=O)C4CCC4)n3)cc2)CC1
result_unit: %
growth: 80.6
--
compound: COC(=O)c1nc(-c2ccccc2)oc1S(=O)(=O)N(C)CCO
result_unit: %
growth: 92.3
--
compound: C=C(CNCCc1ccc(O)cc1)[C@@H]1CC[C@]2(CO)CC[C@]3(C)[C@H](CC[C@@H]4[C@@]5(C)CCC(NCCc6ccc(O)cc6)C(C)(C)[C@@H]5CC[C@]43C)[C@@H]12 (some centres undefined)
result_unit: %
growth: -81.5
--
compound: COC(=O)/C=C1/SC(N2N=C(c3cccs3)CC2c2ccc(F)cc2)=NC1=O (centres undefined)
result_unit: %
growth: 32.4

Quick check: growth of COc1ccc2c(O)c(/C=C3\N=Nc4nc(C)ccc43)oc2c1CC1CCNCC1 ? 67.4

Okay, and Clc1ccc2c(NCCN3CCN(c4ccnc(N5CCCC5)n4)CC3)ccnc2c1 ? 33

Okay, and N#C/C(=N\Nc1ccc(Cl)cc1)C(=O)Nc1cc(-c2ccccc2)nn1-c1ccccc1 ? 19.9

---

Below, each entry is listed alongside its reported growth.
Test system: CAKI-1 renal
Assay: NCI-60 one-dose screen, 48 h (100 = growth as untreated, 0 = no growth, -100 = all killed)
Conditions: 10 µM unless noted
Experimental: Growth inhibition of the CAKI-1 human tumor cell line is measured as a screen for anti-cancer activity. Cells are grown in 96 well plates and exposed to the test compound for 48 hours. Compounds are tested at a single concentration, which is 10^-5 M for most compounds. The reported endpoint is percent growth (GI% or GIPRCNT), where numbers from 0 - 100% represent growth inhibition, and numbers from -100% - 0 represent cell death. For example, a value of 40 represents 60% growth inhibition. […]
About 83,000 compounds went through this panel and 20% of them were active in at least one assay; those are over-represented in the sample as a whole.
Note: unit % is implicit; provide only the numeric part.

molecule: COc1ccc(Oc2nc(Nc3ccc(N4CCOCC4)cc3)ncc2NC(=O)c2cccc(C(F)(F)F)c2)cc1
growth / %: 88.9

Quick check: growth of O=C(NCc1ccc(Cn2c(=O)sn(-c3ccc(Cl)cc3)c2=O)cc1)OCc1ccc2c(Cl)cc(Cl)c(O)c2n1 ? 52.1

Okay, and NS(=O)(=O)c1ccc(C(=O)N=Nc2c(O)[nH]c3c(F)cccc23)cc1 ? 93.2

Okay, and CN1CCN(CCNC(=O)c2cccc(CN3c4cccc5c4C(=Cc4cccnc43)N(C)C5=O)c2)CC1 ? 8.78

Okay, and O=C1/C(=C/c2cn(-c3ccccc3)nc2-c2ccccc2)SC(=S)N1c1ccccc1 ? 87.2

Okay, and Cc1ccc(-c2nc(SCC(=O)c3ccc(C#N)cc3)[nH]c(=O)c2C#N)cc1 ? 93.4
